ASSAYED TARGET: Bromodomain adjacent to zinc finger domain protein 2B (Homo sapiens) (UniProt Q9UIF8)
Sequence (Q9UIF8 whole entry, looked up, the tested form may be a part): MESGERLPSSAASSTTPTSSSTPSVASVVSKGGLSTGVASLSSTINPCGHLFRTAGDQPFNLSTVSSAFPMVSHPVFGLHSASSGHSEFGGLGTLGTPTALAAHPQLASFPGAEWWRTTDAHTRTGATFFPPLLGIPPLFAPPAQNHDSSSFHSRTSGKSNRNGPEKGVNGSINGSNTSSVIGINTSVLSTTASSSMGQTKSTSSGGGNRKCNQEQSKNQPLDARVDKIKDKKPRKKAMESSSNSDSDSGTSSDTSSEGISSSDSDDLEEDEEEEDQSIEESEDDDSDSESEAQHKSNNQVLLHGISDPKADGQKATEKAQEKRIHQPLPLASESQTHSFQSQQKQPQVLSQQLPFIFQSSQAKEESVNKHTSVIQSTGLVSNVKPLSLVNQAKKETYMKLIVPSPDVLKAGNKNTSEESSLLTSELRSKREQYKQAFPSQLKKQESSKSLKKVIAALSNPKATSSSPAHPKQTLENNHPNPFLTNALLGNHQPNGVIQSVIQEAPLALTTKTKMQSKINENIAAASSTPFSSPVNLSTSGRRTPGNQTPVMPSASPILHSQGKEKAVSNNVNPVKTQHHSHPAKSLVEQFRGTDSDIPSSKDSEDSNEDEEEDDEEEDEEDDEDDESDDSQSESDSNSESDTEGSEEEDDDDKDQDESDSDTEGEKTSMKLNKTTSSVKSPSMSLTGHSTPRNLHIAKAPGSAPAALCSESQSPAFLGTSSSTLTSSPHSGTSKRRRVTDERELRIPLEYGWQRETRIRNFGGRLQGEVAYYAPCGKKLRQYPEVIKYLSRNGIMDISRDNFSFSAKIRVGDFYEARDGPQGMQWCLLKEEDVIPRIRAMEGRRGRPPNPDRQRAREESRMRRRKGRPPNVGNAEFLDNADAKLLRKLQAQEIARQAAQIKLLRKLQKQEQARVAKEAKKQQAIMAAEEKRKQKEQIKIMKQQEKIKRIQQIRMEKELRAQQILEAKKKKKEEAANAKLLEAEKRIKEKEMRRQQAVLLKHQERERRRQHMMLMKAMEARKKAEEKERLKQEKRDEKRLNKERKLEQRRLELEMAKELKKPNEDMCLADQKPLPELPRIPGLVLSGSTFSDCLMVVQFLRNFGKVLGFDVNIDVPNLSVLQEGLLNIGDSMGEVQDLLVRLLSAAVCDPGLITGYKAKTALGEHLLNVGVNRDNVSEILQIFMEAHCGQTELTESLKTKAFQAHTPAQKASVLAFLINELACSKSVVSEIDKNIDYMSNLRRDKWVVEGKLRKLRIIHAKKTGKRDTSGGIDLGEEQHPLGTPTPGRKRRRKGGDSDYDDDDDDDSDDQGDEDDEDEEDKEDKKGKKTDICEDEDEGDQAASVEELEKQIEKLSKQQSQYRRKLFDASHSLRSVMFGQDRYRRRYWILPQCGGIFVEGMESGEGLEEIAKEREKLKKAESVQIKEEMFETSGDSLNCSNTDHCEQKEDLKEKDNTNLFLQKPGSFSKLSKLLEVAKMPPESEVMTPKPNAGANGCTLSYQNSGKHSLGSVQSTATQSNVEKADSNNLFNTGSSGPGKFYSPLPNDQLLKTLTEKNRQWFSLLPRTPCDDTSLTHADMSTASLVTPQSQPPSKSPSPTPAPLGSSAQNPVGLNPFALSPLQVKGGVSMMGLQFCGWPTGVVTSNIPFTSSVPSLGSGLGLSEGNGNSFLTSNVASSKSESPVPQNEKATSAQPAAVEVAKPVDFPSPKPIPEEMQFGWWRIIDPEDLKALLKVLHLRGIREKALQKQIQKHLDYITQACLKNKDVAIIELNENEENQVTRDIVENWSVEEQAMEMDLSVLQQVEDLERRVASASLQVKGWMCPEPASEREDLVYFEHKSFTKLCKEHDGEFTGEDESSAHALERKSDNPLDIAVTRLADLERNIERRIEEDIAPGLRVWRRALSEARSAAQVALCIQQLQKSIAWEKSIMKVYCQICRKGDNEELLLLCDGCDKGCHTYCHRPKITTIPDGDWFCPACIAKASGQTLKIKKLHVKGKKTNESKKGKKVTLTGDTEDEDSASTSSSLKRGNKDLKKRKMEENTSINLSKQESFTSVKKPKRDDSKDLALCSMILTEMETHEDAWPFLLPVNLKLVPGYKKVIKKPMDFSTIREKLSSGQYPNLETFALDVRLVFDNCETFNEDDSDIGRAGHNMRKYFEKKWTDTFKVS
ASSAY NOTES: qHTS Assay for Inhibitors of BAZ2B; note: nearly all actives have a fitted effect of over 60% in size
ASSAY CONTEXT: AlphaScreen BAZ2B-H3K14Ac peptide displacement; series mostly up to 114 µM
The whole screen tested about 360,000 compounds, of which about 16,000 (4.4%) were called active. Roughly 9% stayed inconclusive and do not appear here. Calls come from the whole dose curve; as a rule, active = well fitted inhibition curve with a large enough effect; inconclusive = small, poorly fitted or top-dose-only effect; inactive = no such curve, though single readings can be large or run the other way. Only a selection was taken, and actives are over-represented in it overall.
Permitted responses: True = active, False = inactive

Hi, sorry to bother you, what did the test record for `COc1ccc(Cl)cc1NC(=O)CCn1c(=O)c2cccn2c2ccccc21` ? False

Test call, this compound: `O=C(NCCCn1ccnc1)c1cc2c(s1)CCCC2` True

Given CC1CCCCN1CC(=O)N1CCCc2c1c(=O)oc1ccc(OCc3ccccc3)cc21 (configuration not stated) , state the outcome it received in this test. False

Hi, do you know how `Cc1ccc(NC(=O)CCCn2c(=O)c3cccn3c3ccccc32)cc1Cl` came out in this test? True

Test call, this compound: `COc1cc(NC(=O)c2noc3c2CSc2ccccc2-3)cc(OC)c1OC` False

Dear colleague, could you share the recorded outcome for `COc1cc([N+](=O)[O-])ccc1NC(=O)CN1CCCC1` when you have a moment? False

Assay outcome for `CCCCn1c(=O)c(CCC(=O)OCC(=O)Nc2ccc(C)c(Cl)c2)nc2ccccc21` : what was it? False

Assay outcome for O=C(NCCCn1ccnc1)C(=O)NCC1OCCN1S(=O)(=O)c1cc(F)ccc1F (configuration not stated) : what was it? True

Would you mind telling me which call this test gave `COCCn1c(SCC(=O)c2cc(C)ccc2C)nc2cc(C(=O)NC3CCCC3)ccc2c1=O` ? False

Write down the call the test reported for this compound. Item: `COc1ccc(Cl)cc1NC(=O)CSc1nc(=O)[nH]c2c1CCCC2` False

For `COc1ccc(-n2c(SCC(=O)Nc3sc4c(c3C#N)CCCC4)nnc2-c2ccc(O)cc2)cc1` , what call appears in the results of this test? True

Entry `CCc1cc2c(cc(C(=O)OC)n2Cc2nc(-c3ccc(C)cc3)oc2C)s1` : call = ? False

Which outcome was entered for the compound O=S(=O)(NCC(c1ccco1)N1CCOCC1)c1cc(F)ccc1F (configuration not stated) in this test? False

Could you check what this test reported for `O=C(CN1CCCCCC1)Nc1ccc(Br)cc1Br` ? False

Which outcome did this test record for the compound `Cc1ccccc1NC(=O)Cn1c(=O)n(CCCCC(=O)NCc2ccccc2Cl)c(=O)c2ccccc21` ? False

Hi, do you know how `O=C(NCCCn1ccnc1)c1cc(Br)c(Br)s1` came out in this test? False

For COc1ccccc1CNC(=O)c1ccc(CS(=O)c2ccccc2Cl)o1 (configuration not stated) , what call appears in the results of this test? False

What was the test verdict on Cc1cc(F)ccc1S(=O)(=O)N1CCCOC1CNC(=O)C(=O)NCCC1=CCCCC1 (configuration not stated) ? False

Test call for this compound, please: `Oc1ccc(N=Nc2nccs2)c(O)c1` True

What was the test verdict on `Cc1ccc(C)c(OCC(=O)Nc2sc3c(c2C#N)CCCC3)c1C` ? False

Per the records of this test, what outcome belongs to `O=C(CN1CCCCCC1)Nc1ccc(Br)cc1[N+](=O)[O-]` ? True

I'd appreciate the recorded outcome for `COc1cccc(N2CCN(C(=O)CCCCCn3c(=O)[nH]c4ccccc4c3=O)CC2)c1` from this test. False
